tested on: WPMY1-ACTB-RAB5A; assay: phenotypically active (imaging signature differs from DMSO and reproducible) at any of 0.3-9 uM (binary (1 = active, 0 = inactive)); higher = active; conditions: treatment time: 24 h
Can you tell me phenotypically active for the items I'm about to list?
Give bare numbers.

The following compounds have reported results that may help.
[[record]]
compound = "CC1(C)CCC(C)(C)c2cc(C3(c4ccc(C(=O)O)cc4)OCCO3)ccc21"
endpoint_result = 0

[[record]]
compound = "Cc1ccc(-c2cc(C(F)(F)F)nn2-c2ccc(S(N)(=O)=O)cc2)cc1 [celecoxib]"
endpoint_result = 0


Give phenotypically active for each of the items listed below.
1. Cc1c2oc3c(C)ccc(C(=O)NC4C(=O)NC(C(C)C)C(=O)N5CCCC5C(=O)N(C)CC(=O)N(C)C(C(C)C)C(=O)OC4C)c3nc-2c(C(=O)NC2C(=O)NC(C(C)C)C(=O)N3CCCC3C(=O)N(C)CC(=O)N(C)C(C(C)C)C(=O)OC2C)c(N)c1=O (configuration not stated) [Actinomycin D]
2. COCc1c(C(C)C)nc(C(C)C)c(/C=C/[C@@H](O)C[C@@H](O)CC(=O)O)c1-c1ccc(F)cc1 [cerivastatin]
3. Cn1cccc1/C=C1\C(=O)NC(=O)c2ccccc21
4. COc1ccc(C2=N[C@H](c3ccc(Cl)cc3)[C@H](c3ccc(Cl)cc3)N2C(=O)N2CCNC(=O)C2)c(OC(C)C)c1 [Nutlin-3]

1: 1; 2: 1; 3: 0; 4: 0

May I ask what phenotypically active has been recorded for CCN(CC)C(C)CN1c2ccccc2Sc2ccccc21 (configuration not stated) [profenamine] ? 0

----------
system: HepG2-ACTB-RAB5A; assay: phenotypically active (imaging signature differs from DMSO and reproducible) at any of 0.3-9 uM (binary (1 = active, 0 = inactive)); higher = active; conditions: treatment time: 24 h
PROPERTY_NAME: phenotypically active
Numbers only.

Give phenotypically active for each of the items listed below.
1. CC(C)n1c(/C=C/[C@@H](O)C[C@@H](O)CC(=O)O)c(-c2ccc(F)cc2)c2ccccc21.CC(C)n1c(/C=C/[C@H](O)C[C@H](O)CC(=O)O)c(-c2ccc(F)cc2)c2ccccc21 [Fluvastatin sodium]
2. CNC(=C[N+](=O)[O-])NCCSCc1ccc(CN(C)C)o1

1. 1
2. 0

Give phenotypically active for each of the items listed below.
1. C=CCc1ccc(O)c(-c2ccc(O)c(CC=C)c2)c1
2. CCN(CC)CCOC(=O)C1(C2CCCCC2)CCCCC1
3. O=C(NOC[C@H](O)CO)c1ccc(F)c(F)c1Nc1ccc(I)cc1F
4. CN1CCC(CN2c3ccccc3Sc3ccccc32)C1 (stereo unspecified)

1. 0
2. 0
3. 1
4. 1

----------
Can you tell me lowest phenotypically active concentration for the items I'm about to list?
test system: HepG2-TP53BP1-CLTA; assay: lowest phenotypically active concentration; higher = less potent; conditions: treatment time: 24 h
Numbers only, in µM.

The following compounds have reported results that may help.
[[record]]
compound = "Nc1cc(C(F)(F)F)c(-c2cc(N3CCOCC3)nc(N3CCOCC3)n2)cn1"
unit_string = "µM"
endpoint_result = 3

[[record]]
compound = "CCCc1cc(C)n(C)c(=O)c1CN(C)C(=O)c1cc(-c2ccc(N3CCN(C(C)C)CC3)nc2)cc2c1cnn2C(C)C"
unit_string = "µM"
endpoint_result = 3

[[record]]
compound = "CCc1cncnc1N1CCN(Cc2nc3cc(C(F)(F)F)ccc3[nH]2)CC1"
unit_string = "µM"
endpoint_result = 9

[[record]]
compound = "CN(C)CCCNc1c2c(=O)n(C)c(=O)nc-2n(C)c2ccccc12"
unit_string = "µM"
endpoint_result = 9

[[record]]
compound = "CC(C)n1c(/C=C/[C@@H](O)C[C@@H](O)CC(=O)O)c(-c2ccc(F)cc2)c2ccccc21.CC(C)n1c(/C=C/[C@H](O)C[C@H](O)CC(=O)O)c(-c2ccc(F)cc2)c2ccccc21 [Fluvastatin sodium]"
unit_string = "µM"
endpoint_result = 1


Give lowest phenotypically active concentration for each of the items listed below.
1. CC(C)n1c(/C=C/[C@@H](O)C[C@@H](O)CC(=O)O)c(-c2ccc(F)cc2)c2ccccc21
2. c1ccc(-c2n[nH]cc2-c2ccnc3ccccc23)nc1
3. COc1c(Nc2cc(C)[nH]n2)nc(Sc2ccc(S(=O)(=O)Cc3cccc([N+](=O)[O-])c3F)cc2F)nc1N1CCOCC1
4. COc1ccc(N2C(=O)CSC2c2cccc(Br)c2)c(OC)c1 (stereo not drawn)
5. COc1ccc(S(=O)(=O)Nc2cccnc2Nc2ccc(O)cc2)cc1
6. O=C(O)C[C@H](O)C[C@H](O)/C=C/c1c(C2CC2)nc2ccccc2c1-c1ccc(F)cc1
7. O=C(Nc1nc2cc(C(F)(F)F)cc(NC3CC3)n2n1)c1cccnc1
8. CN1CCCC(n2nc(Cc3ccc(Cl)cc3)c3ccccc3c2=O)CC1 (stereo not drawn)

1. 3
2. 9
3. 3
4. 9
5. 1
6. 1
7. 9
8. 9

----------
test system: WPMY1-TP53BP1-CLTA; test: phenotypically active (imaging signature differs from DMSO and reproducible) at any of 0.3-9 uM (binary (1 = active, 0 = inactive)); higher = active; conditions: treatment time: 24 h
PROPERTY_NAME: phenotypically active
One number for each entry.

The following compounds have reported results that may help.
[[record]]
compound = "CC(C)n1c(/C=C/[C@@H](O)C[C@@H](O)CC(=O)O)c(-c2ccc(F)cc2)c2ccccc21.CC(C)n1c(/C=C/[C@H](O)C[C@H](O)CC(=O)O)c(-c2ccc(F)cc2)c2ccccc21 [Fluvastatin sodium]"
property_name = "phenotypically active"
endpoint_result = 1

[[record]]
compound = "O=c1[nH]cnc2c1ncn2[C@H]1CC[C@@H](CO)O1 [Didanosine]"
property_name = "phenotypically active"
endpoint_result = 0

[[record]]
compound = "CCCc1cc(C)n(C)c(=O)c1CN(C)C(=O)c1cc(-c2ccc(N3CCN(C(C)C)CC3)nc2)cc2c1cnn2C(C)C"
property_name = "phenotypically active"
endpoint_result = 1


May I ask what phenotypically active has been recorded for "O=C(O)[C@H]1CCCC[C@H]1C(=O)N1CCc2ccccc2[C@H]1CN1C(=O)c2ccccc2C1=O" ? 0

----------
system: A549-TP53BP1-CLTA; assay: lowest phenotypically active concentration; higher = less potent; conditions: treatment time: 24 h
Can you tell me lowest phenotypically active concentration for the items I'm about to list?
Answers are plain numbers, in µM.

The following molecules have reported results that may help.
[[record]]
molecule = "COc1cc(N2CCOCC2)ccc1Nc1ncc(Cl)c(Nc2ccccc2NS(C)(=O)=O)n1"
endpoint_result = 3

[[record]]
molecule = "CCC(C)(C)C(=O)O[C@H]1C[C@@H](C)C=C2C=C[C@H](C)[C@H](CC[C@@H]3C[C@@H](O)CC(=O)O3)[C@H]21 [Simvastatin]"
endpoint_result = 9


API: the following record is the query input.
May I ask what lowest phenotypically active concentration has been recorded for "C=CC(=O)N1CCC[C@@H](n2nc(-c3cccc(C(=O)Nc4ccc(C(C)C)c(C)c4)c3)c3c(N)ncnc32)C1" ? 3

----------
system: A549-TP53BP1-CLTA; test: phenotypically active (imaging signature differs from DMSO and reproducible) at any of 0.3-9 uM (binary (1 = active, 0 = inactive)); higher = active; conditions: treatment time: 24 h
Structures can show the parent of a compound that is named as a salt.
PROPERTY_NAME: phenotypically active
Answers are plain numbers.

Give phenotypically active for each of the items listed below.
1. Clc1ccc(C2(c3ccc(-c4cn[nH]c4)cc3)CCNCC2)cc1
2. CCN1/C(=C/C(C)=O)Sc2ccc(O)cc21
3. O=C(Nc1ccc(-c2ccnc(Nc3ccc(N4CCOCC4)cc3)n2)cc1)[C@@H]1CCCN1

1
1
1

Give phenotypically active for each of the items listed below.
1. Cc1cc(/N=N/c2cc(S(=O)(=O)O)c(C)cc2C)c(N)cc1O [Ischemin sodium salt]
2. O=C1N[C@@H]2[C@@H](O)[C@@H](O)[C@H](O)[C@@H](CO)N2C1=O
3. CCCc1nc2c(C)cc(-c3nc4ccccc4n3C)cc2n1Cc1ccc(-c2ccccc2C(=O)O)cc1

1: 0; 2: 0; 3: 0

Give phenotypically active for each of the items listed below.
1. CCC(=O)N1CCN(c2ccc(-n3c(=O)ccc4cnc5ccc(-c6cnc7ccccc7c6)cc5c43)cc2C(F)(F)F)CC1
2. COCCc1ccc(OCC(O)CNC(C)C)cc1 (centres undefined)
3. FC(F)OC(F)C(F)(F)F (centres undefined)

1. 1
2. 0
3. 0

----------
Can you tell me phenotypically active for the items I'm about to list?
test system: WPMY1-TP53BP1-CLTA; assay: phenotypically active (imaging signature differs from DMSO and reproducible) at any of 0.3-9 uM (binary (1 = active, 0 = inactive)); higher = active; settings: treatment time: 24 h
Give bare numbers.

The following compounds have reported results that may help.
[[record]]
compound = "CC(C)(C)c1cc(C(=O)/C=C/c2ccc(C(=O)O)cc2)cc(C(C)(C)C)c1"
endpoint_result = 1

[[record]]
compound = "O=C(CCCCCCC(=O)Nc1cccnc1)NO [Pyroxamide]"
endpoint_result = 1


Give phenotypically active for each of the items listed below.
1. CNC[C@H](O)c1ccc(O)c(O)c1 [epinephrine]
2. O=C(O)[C@]1(Cc2cccc(Nc3nccs3)n2)CC[C@@H](Oc2cccc(Cl)c2F)CC1
3. O=C1NC(=O)C(c2ccccc2[N+](=O)[O-])=C1Nc1ccc(O)c(Cl)c1
4. Cc1cc(C(C)Nc2ccccc2)c2nc(N3CCOCC3)cc(=O)n2c1 (configuration not stated)
5. CCOC(=O)CCNc1cc(N2CCc3ccccc3CC2)nc(-c2ccccn2)n1

1. 0
2. 1
3. 0
4. 0
5. 1
